molecular target: human TOR (Homo sapiens, UniProt P42345); construct: FLAG; experiment: mTOR enzyme assay (DELFIA, His6-S6K substrate); format: biochemical; settings: mTOR Kinase Avg. IC50
IC50 listing for selected compounds.
Lab book: enter the figure in nM, no units written.

Worked cases, answers included:
[[record]]
compound = "O=C1C(=Cc2c[nH]c3ccccc23)Oc2cc(O)cc(O)c21 [Example 13]"
measured_quantity = "IC50"
observed_result = 9200

[[record]]
compound = "COc1ccc2c(c1)c(C=C1Oc3cc(O)cc(O)c3C1=O)cn2CCCN1CCOCC1 [Example 112]"
measured_quantity = "IC50"
observed_result = 430


Name the recorded IC50 of O=C1C(=Cc2c(-c3ccccn3)[nH]c3ccccc23)Oc2cc(O)cc(O)c21 [Example 72] , assay system human TOR (Homo sapiens, UniProt P42345).
21.2

----------
biological target: PI3K-alpha (Homo sapiens, UniProt P42336); assay: PI3K-alpha fluorescence polarization assay; type: biochemical; settings: read-out: PI3Kα Avg. IC50
Sequence (P42336 whole entry, species assumed): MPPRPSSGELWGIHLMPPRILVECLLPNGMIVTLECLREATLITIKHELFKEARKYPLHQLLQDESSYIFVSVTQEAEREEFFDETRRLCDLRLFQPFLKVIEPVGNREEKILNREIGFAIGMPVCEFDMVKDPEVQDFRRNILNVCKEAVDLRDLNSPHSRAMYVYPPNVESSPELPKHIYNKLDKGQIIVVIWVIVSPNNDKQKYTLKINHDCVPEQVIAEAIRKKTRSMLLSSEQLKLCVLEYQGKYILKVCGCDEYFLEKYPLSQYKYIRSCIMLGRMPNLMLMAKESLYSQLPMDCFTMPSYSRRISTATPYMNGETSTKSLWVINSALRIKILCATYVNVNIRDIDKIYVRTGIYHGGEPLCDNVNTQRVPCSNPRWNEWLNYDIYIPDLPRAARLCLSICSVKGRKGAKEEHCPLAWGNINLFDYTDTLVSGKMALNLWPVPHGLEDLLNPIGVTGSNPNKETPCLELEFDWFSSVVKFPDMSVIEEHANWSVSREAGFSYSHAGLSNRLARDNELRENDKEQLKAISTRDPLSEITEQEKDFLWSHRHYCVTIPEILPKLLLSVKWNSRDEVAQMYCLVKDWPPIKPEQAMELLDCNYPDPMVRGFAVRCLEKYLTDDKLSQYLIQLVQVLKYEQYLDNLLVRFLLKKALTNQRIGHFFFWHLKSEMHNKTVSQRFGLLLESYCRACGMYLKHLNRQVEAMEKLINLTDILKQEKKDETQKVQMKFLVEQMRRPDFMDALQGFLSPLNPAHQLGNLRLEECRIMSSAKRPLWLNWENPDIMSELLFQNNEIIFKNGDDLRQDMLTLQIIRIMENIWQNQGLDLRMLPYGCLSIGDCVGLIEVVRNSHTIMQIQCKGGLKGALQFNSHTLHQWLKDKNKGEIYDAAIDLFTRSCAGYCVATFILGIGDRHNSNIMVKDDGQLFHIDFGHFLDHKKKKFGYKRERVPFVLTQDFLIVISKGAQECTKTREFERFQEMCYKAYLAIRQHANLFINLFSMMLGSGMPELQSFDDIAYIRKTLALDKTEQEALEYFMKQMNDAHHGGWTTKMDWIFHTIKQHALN
Sequence (P27986 whole entry partner, species assumed): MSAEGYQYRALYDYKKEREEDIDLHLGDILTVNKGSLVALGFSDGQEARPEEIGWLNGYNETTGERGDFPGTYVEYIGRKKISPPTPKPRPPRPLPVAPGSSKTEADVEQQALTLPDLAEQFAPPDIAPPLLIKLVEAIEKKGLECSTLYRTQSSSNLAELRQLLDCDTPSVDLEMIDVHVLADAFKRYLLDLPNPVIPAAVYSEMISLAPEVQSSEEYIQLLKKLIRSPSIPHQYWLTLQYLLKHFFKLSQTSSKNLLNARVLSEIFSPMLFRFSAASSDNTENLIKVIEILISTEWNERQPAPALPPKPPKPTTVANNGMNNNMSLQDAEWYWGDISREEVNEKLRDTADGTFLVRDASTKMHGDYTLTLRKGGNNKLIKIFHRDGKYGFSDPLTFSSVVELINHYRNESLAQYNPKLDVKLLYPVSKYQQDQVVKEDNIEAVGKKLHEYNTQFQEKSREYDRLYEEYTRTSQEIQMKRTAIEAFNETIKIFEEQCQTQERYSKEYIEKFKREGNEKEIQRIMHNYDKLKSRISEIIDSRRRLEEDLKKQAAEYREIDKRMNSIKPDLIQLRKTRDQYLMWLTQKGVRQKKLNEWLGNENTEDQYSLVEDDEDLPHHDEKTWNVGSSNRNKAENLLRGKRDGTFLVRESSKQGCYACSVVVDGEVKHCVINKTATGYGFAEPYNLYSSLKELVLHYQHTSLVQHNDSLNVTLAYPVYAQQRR
Classify: t when IC50 is strictly less than 600 nM; f when IC50 is not.

State whether 600 nM exceeds IC50 recorded for "COc1cccc2c1OC(=Cc1c(-c3ccccc3)[nH]c3ccccc13)C2=O" .
f

State whether 600 nM exceeds IC50 recorded for "COc1ccc2c(c1)c(C=C1Oc3c(ccc(O)c3O)C1=O)c(C)n2CCCCCl" .
t

State whether 600 nM exceeds IC50 recorded for "Cc1c(C=C2Oc3cc(O)cc(O)c3C2=O)c2cccc(Br)c2n1C" .
f

State whether 600 nM exceeds IC50 recorded for "COc1ccc2c(c1)c(/C=C1\Oc3ccc(O)cc3C1=O)cn2CCCN(C)C" .
f

State whether 600 nM exceeds IC50 recorded for "O=C1C(=Cc2c(-c3ccccc3)n(CCN3CCNCC3)c3ccccc23)Oc2cc(O)cc(O)c21" .
f

State whether 600 nM exceeds IC50 recorded for "COc1ccc2c(c1)c(C=C1Oc3cccc(O)c3C1=O)c(C)n2CCCCN1CCN(C)CC1" .
f

State whether 600 nM exceeds IC50 recorded for "COc1ccc2[nH]cc(/C=C3\Oc4cc(O)cc(OC)c4C3=O)c2c1" .
t

----------
target: human TOR (Homo sapiens); construct: FLAG; experiment: mTOR enzyme assay (DELFIA, His6-S6K substrate); format: biochemical; details: read-out: mTOR Kinase Avg. IC50
MEASURED_QUANTITY: pIC50
Hey, just a heads up that pIC50 is the negative log base 10 of the concentration in molar.

Worked cases, answers included:
[[record]]
compound = "COc1ccc2c(c1)c(/C=C1\\Oc3cc(O)cc(C)c3C1=O)c(C)n2CCCN(C)C"
observed_result = 5.66

[[record]]
compound = "N#CCCCn1cc(C=C2Oc3cc(O)cc(O)c3C2=O)c2c(Br)cccc21"
observed_result = 5.47

[[record]]
compound = "COc1ccc2c(c1)c(/C=C1\\Oc3ccc(NC(=O)Nc4ccc(C(=O)N5CCN(C)CC5)cc4)cc3C1=O)c(C)n2CCN1CCN(C)CC1"
observed_result = 7.00


Continue with the compound presented below.
Output measured pIC50 for this item: "CNC(=O)Nc1ccc2c(c1)C(=O)/C(=C/c1c(C(=O)NC(C)(C)CO)[nH]c3ccc(OC)cc13)O2"
7.02
